target: truncated His-MBP-Tev-KLHDC2 (residues 1-363) (Homo sapiens, UniProt Q9Y2U9); construct: truncated His -MBP-Tev-KLHDC2 (residues 1-363) purified from E. coli; made in house; host or cells: E. coli; test: KLHDC2 FP competition binding assay; conditions: 15 nM KLHDC2 (residues 1-363), 10 nM fluorescein-labeled diglycine peptide probe, read-out: KLHDC2 binding Human FP: average external IC50
pIC50: −log10 of the molar value.
reported property: pIC50

Examples with answers:
| molecule | measured value |
| --- | --- |
| COc1cccc(C2C(C(=O)O)CC(=O)N2C2CC2)c1 (centres unmarked) | < 5.30 |
| Cc1sc2c(c1C)C(c1ccc(Cl)cc1)=N[C@@H](CC(=O)NCCCCCCc1ccncc1-c1cccc(C(=O)Nc3ccc(=O)n(CC(=O)O)c3)c1)c1nnc(C)n1-2 | > 7.30 |
| O=C(O)Cn1cc(CC(=O)N2CCCCC2)ccc1=O | < 5.30 |
| CS(=O)(=O)Nc1cccc(CC(=O)O)c1 | < 5.30 |
| O=C(O)Cn1cc(-c2cncc(CCc3ccccc3)c2)ccc1=O | < 5.30 |

# query: pIC50 | item CC(C)Cn1ncc2c(C(=O)Nc3ccc(=O)n(CC(=O)O)c3)cccc21 | system: truncated His-MBP-Tev-KLHDC2 (residues 1-363) (Homo sapiens, UniProt Q9Y2U9)
< 5.30

// next record COc1ccc(-c2ccccc2C)cc1CC(=O)O
< 5.30

// next record Cc1ccc(C)c(-c2ccc(O)c(CC(=O)O)c2)c1
< 5.30

---

Some compounds, each annotated with its measured IC50.
Biological target: truncated His-MBP-Tev-KLHDC2 (residues 1-363) (Homo sapiens, UniProt Q9Y2U9)
Construct: truncated His -MBP-Tev-KLHDC2 (residues 1-363) purified from E. coli; made in house; host or cells: E. coli
Sequence (Q9Y2U9 1-363): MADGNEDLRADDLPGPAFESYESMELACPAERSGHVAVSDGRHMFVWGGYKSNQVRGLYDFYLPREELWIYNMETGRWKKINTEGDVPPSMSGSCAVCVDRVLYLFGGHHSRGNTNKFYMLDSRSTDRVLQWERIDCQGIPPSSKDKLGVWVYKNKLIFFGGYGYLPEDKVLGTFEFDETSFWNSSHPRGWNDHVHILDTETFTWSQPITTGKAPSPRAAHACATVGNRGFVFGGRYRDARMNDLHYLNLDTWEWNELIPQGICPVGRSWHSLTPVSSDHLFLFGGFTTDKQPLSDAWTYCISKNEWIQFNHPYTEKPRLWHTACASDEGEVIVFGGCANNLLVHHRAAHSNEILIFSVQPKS
Experiment: KLHDC2 FP competition binding assay
Conditions: 15 nM KLHDC2 (residues 1-363), 10 nM fluorescein-labeled diglycine peptide probe, read-out: KLHDC2 binding Human FP: average external IC50

Examples with answers:
| compound | reported property | measured value |
| --- | --- | --- |
| O=C(O)CC(C(=O)n1ccc2ccccc21)c1ccc(=O)n(CC(=O)O)c1 (stereo not shown) | IC50 | > 5 µM |
| CS(=O)(=O)c1ccccc1-c1ccc(=O)n(CC(=O)O)c1 | IC50 | > 5 µM |
| Cc1ccc2nc(C(=O)Nc3ccc(=O)n(CC(=O)O)c3)ccc2c1 | IC50 | > 5 µM |

Find the recorded IC50 belonging to Cc1ccc(-c2cccc(C(=O)Nc3ccc(=O)n(CC(=O)O)c3)c2)cc1 and report it.
> 5 µM

// next record C[C@@H](C(=O)O)n1cc(NC(=O)c2cccc(-c3cccnc3)c2)ccc1=O
> 5 µM

// next record O=C(O)Cn1cc(Nc2nccc3c(-c4cccnc4)cccc23)ccc1=O
> 5 µM

// next record O=C(O)Cn1cc(-c2ccccc2Cl)ccc1=O
> 5 µM

// next record O=C(O)Cn1cc(-c2cccc(CCc3ccccc3)c2)ccc1=O
> 5 µM

// next record O=C(O)Cn1cc(NC(=O)c2cccc(-c3cccnc3)c2)c(C2CC2)cc1=O
> 5 µM

// next record O=C(O)Cn1cc(NC(=O)c2cccc(-c3cncnc3)c2)ccc1=O
0.5 to 5 µM

// next record O=C(O)Cn1cc(-c2ccc(C(F)(F)F)cc2)ccc1=O
> 5 µM

---

Some compounds, each annotated with its measured pIC50.
Target: truncated His-MBP-Tev-KLHDC2 (residues 1-363) (Homo sapiens)
Construct: truncated His -MBP-Tev-KLHDC2 (residues 1-363) purified from E. coli; made in house; host or cells: E. coli
Sequence (Q9Y2U9 1-363): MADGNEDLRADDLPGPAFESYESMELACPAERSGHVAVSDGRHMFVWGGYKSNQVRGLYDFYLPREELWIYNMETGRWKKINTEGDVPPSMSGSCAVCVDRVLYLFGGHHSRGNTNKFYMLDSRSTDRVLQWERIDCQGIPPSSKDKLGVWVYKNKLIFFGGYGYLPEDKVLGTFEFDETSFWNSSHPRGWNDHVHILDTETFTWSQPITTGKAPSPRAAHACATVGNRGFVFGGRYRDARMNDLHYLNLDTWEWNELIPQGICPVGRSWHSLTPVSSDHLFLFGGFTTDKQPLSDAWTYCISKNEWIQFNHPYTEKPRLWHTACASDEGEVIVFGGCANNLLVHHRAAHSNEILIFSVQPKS
Test: KLHDC2 FP competition binding assay
Details: 15 nM KLHDC2 (residues 1-363), 10 nM fluorescein-labeled diglycine peptide probe, read-out: KLHDC2 binding Human FP: average external IC50
pIC50: −log10 of the molar value.

Examples with answers:
| compound | pIC50 |
| --- | --- |
| CC(NC(=O)CCC(=O)O)C(=O)c1ccccc1 (centres unmarked) | < 5.30 |
| Cc1ccc2c(c1C)NC(C(=O)O)C1CC=CC21 (centres unmarked) | < 5.30 |
| O=C(O)Cn1cc(NC(=O)c2cccc(-c3cncc4ccccc34)c2)ccc1=O | 5.30 to 6.30 |
| O=C(O)Cc1cc(NC(=O)[C@H]2CCCN(c3cncc4ccccc34)C2)ccc1Cl | 6.30 to 7.30 |
| O=C(O)Cn1cc(-c2ccc3cn[nH]c3c2)ccc1=O | < 5.30 |
| O=C(O)Cn1cc(NC(=O)c2cccc(-c3cccnc3)n2)ccc1=O | < 5.30 |
| COc1cncc(-c2cccc(C(=O)Nc3ccc4c(c3)CC(=O)O4)c2)c1 | < 5.30 |
| Nc1ccc(-c2ccc(=O)n(CC(=O)O)c2)cc1 | < 5.30 |

Find the recorded pIC50 belonging to O=C(O)Cn1cc(N2CCc3cc(-c4cccnc4)ccc3C2=O)ccc1=O and report it.
< 5.30

// next record CCc1cncc(N2CCC[C@H](C(=O)Nc3ccc(=O)n(CC(=O)O)c3)C2)c1
6.30 to 7.30

// next record CCOC(=O)Cn1cc(NC(=O)c2cccc(-c3cncc(CCCCCCNC(=O)OC(C)(C)C)c3)c2)ccc1=O
< 5.30

---

Some compounds, each annotated with its measured pIC50.
biological target: truncated His-MBP-Tev-KLHDC2 (residues 1-363) (Homo sapiens, UniProt Q9Y2U9); construct: truncated His -MBP-Tev-KLHDC2 (residues 1-363) purified from E. coli; made in house; host or cells: E. coli; experiment: KLHDC2 HTRF binding assay; conditions: 1 nM KLHDC2 (residues 1-363), fluorescein-labeled diglycine peptide probe
pIC50: −log10 of the molar value.

Examples with answers:
| compound | pIC50 |
| --- | --- |
| O=C(O)Cn1cc(N2CCOCC2)ccc1=O [I-355] | < 5.30 |
| O=C(O)Cn1cc(NC(=O)Cc2ccccc2)ccc1=O [I-377] | < 5.30 |
| COc1cccc2c(N3CCC[C@H](C(=O)Nc4ccc(F)c(CC(=O)O)c4)C3)cncc12 [I-6] | > 7.30 |
| O=C(O)Cc1cc(NC(=O)c2cccc(-c3cccnc3)c2)ccc1Cl [I-60] | 5.30 to 6.30 |
| O=C(O)Cn1cc(NC(=O)c2cccc3[nH]ccc23)ccc1=O [I-139] | 5.30 to 6.30 |
| CS(=O)(=O)c1cccc(-c2ccc(=O)n(CC(=O)O)c2)c1 [I-385] | < 5.30 |
| Cn1cc(-c2cccc(C(=O)Nc3ccc(=O)n(CC(=O)O)c3)c2)ccc1=O [I-178] | < 5.30 |
| COc1cc2ccccc2cc1C(=O)Nc1ccc(=O)n(CC(=O)O)c1 [I-320] | < 5.30 |
| O=C(O)Cn1cc(-c2cccc(Cl)c2)ccc1=O [I-375] | < 5.30 |
| O=C(O)Cn1cc(NC(=O)[C@H]2CCCN(c3cccnc3)CC2)ccc1=O [I-28] | 5.30 to 6.30 |

# query: pIC50 | item N#Cc1cccc(OCC(=O)Nc2ccc(=O)n(CC(=O)O)c2)c1 [I-258] | system: truncated His-MBP-Tev-KLHDC2 (residues 1-363) (Homo sapiens, UniProt Q9Y2U9)
< 5.30
